Catalogue of IC50 values
- ASSAY_SYSTEM: Lp-PLA2 from plasma (pooled human plasma) (Homo sapiens)
- Construct: 8 μL pooled human plasma; from tissue; host or cells: pooled human plasma
- Sequence (Q13093 22-441): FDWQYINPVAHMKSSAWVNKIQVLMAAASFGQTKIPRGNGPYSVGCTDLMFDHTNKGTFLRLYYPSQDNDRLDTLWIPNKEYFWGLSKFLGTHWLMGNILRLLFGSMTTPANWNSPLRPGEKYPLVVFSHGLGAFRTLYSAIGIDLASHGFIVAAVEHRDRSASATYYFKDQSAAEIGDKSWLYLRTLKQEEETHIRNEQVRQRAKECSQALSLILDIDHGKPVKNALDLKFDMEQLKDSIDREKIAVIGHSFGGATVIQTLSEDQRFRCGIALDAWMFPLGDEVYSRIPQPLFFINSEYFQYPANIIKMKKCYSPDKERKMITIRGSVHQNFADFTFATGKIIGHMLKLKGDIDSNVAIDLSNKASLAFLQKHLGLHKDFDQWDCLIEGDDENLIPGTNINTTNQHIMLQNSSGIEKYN
- EXPERIMENTAL_PROTOCOL: Lp-PLA2 human plasma assay (Thio-PAF assay)
- Type: biochemical
- SETTINGS: text thresholds, read-out: pIC50 values in the thio-PAF assay (converted)
- Text: (3) Lipoprotein-Associated Phospholipase A2 (Lp-PLA2) Human Plasma Assay (Also Referred to as “Thio-PAF Assay”) The human plasma assay utilizes a thioester analog of PAF (phosphatidylcholine), where hydrolysis yields to the formation of a phospholipid containing a free thiol group. The amount of thiol is quantitated continuously by reacting with CPM (7-diethylamino-3-(4′-maleimidylphenyl)-4-methylcoumarin), a maleimide which increases in fluoresence after Michael addition of thiols. […]

The examples below pair each entry with its known result.
COMPOUND: O=c1nc(NCCc2ccc(Oc3ccc(F)cc3)cc2)[nH]cc1Cc1cncnc1 [E188]
IC50: ≤ 100 nM
//
COMPOUND: COc1ncc(Cc2cn(C)c(CCc3ccc(Oc4ccc(Cl)c(C(F)(F)F)c4)cc3)nc2=O)cn1 [E3]
IC50: ≤ 1000 nM
//
COMPOUND: Cn1cc(Cc2cncnc2)c(=O)nc1SCc1ccc(Oc2ccc(C(F)(F)F)cn2)c(C#N)c1 [E105]
IC50: ≤ 100 nM
//
COMPOUND: Cn1cc(Cc2cncnc2)c(=O)nc1SCc1ccc(Oc2cccc(C(F)(F)F)c2)c(C#N)c1 [E97]
IC50: ≤ 100 nM
//
COMPOUND: Cn1cc(Cc2cncnc2)c(=O)nc1CCc1ccc(Oc2ccc(Cl)c(C(F)(F)F)c2)cc1 [E4]
IC50: ≤ 1000 nM

## Task Would you kindly share the measured IC50 for COc1ncc(Cc2c[nH]c(OCCc3ccc(Oc4cnc(C(F)(F)F)nc4)c(F)c3)nc2=O)cn1 [E167] ?
## Result ≤ 100 nM

## Task Now the same for Cc1ncc(Cc2c[nH]c(NCCc3ccc(Oc4ccc(Cl)c(C(F)(F)F)c4)c(C#N)c3)nc2=O)cn1 [E211]
## Result ≤ 1000 nM

---

- ASSAY_SYSTEM: recombinant human Lp-PLA2 (Homo sapiens, UniProt Q13093)
- EXPERIMENTAL_PROTOCOL: Recombinant human Lp-PLA2 assay (rhLp-PLA2, PED6 assay)
- Assay type: biochemical
- SETTINGS: text thresholds; upper limit for pIC50 in this assay is 9.3; read-out: pIC50 values in the PED6 assay (converted)
Where a name gives a salt, the structure may show the parent alone.
compounds and their reported IC50

## Task State the recorded IC50 for this entry: O=c1nc(OCCc2cc(F)c(Oc3ccc(Cl)c(C(F)(F)F)c3)c(F)c2)[nH]cc1Cc1cncnc1
## Result ≤ 1 nM

## Task // repeat for N#Cc1cc(CSc2nc(=O)c(Cc3cncnc3)c[nH]2)ccc1Oc1cccc(C(F)(F)F)c1 and report
## Result ≤ 1 nM

## Task Similarly, Cn1cc(Cc2cn(C)c(SCc3ccc(Oc4ccc(F)c(C(F)(F)F)c4)c(C#N)c3)nc2=O)cn1 [E60, trifluoroacetic acid salt] ?
## Result ≤ 1 nM

## Task Repeat for the following compound: CCc1cn(C)c(SCc2ccc(Oc3ccc(Cl)c(C(F)(F)F)c3)c(C#N)c2)nc1=O
## Result ≤ 10 nM

## Task Also COc1ncc(Cc2c[nH]c(OCCc3ccc(Oc4ccc(Cl)c(C(F)(F)F)n4)cc3)nc2=O)cn1 ?
## Result ≤ 10 nM

## Task Quick one: Cn1cc(Cc2c[nH]c(SCc3ccc(Oc4ccc(Cl)c(C(F)(F)F)c4)c(C#N)c3)nc2=O)cn1 [E58, trifluoroacetic acid salt]
## Result ≤ 1 nM

## Task And then N#Cc1cc(CSc2nc(=O)c(Cc3cncnc3)c[nH]2)ccc1Oc1ccc(F)c(C(F)(F)F)c1 , what is it?
## Result ≤ 1 nM

## Task Repeat with COc1ncc(Cc2c[nH]c(SCc3ccc(Oc4cccc(C(F)(F)F)c4)c(C#N)c3)nc2=O)cn1
## Result ≤ 1 nM

Origin of the recorded values: patent US8637536B2
